In this section, each of the molecules is paired with its reported Hill coefficient.
system: 5-hydroxytryptamine receptor 1A (Rattus norvegicus) (UniProt P19327)
Sequence (whole entry): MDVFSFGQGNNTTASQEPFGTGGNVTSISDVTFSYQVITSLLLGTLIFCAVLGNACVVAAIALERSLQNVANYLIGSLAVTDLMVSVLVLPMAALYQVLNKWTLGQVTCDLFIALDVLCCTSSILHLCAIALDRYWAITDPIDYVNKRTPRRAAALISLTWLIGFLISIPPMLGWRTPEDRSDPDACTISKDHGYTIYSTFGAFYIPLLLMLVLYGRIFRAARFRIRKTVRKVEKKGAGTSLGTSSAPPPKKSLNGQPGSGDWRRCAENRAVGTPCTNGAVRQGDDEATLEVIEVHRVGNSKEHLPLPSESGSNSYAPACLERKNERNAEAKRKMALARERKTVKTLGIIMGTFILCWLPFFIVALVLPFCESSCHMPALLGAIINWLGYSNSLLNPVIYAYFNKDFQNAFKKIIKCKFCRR
assay-procedure: Binding affinity at [3H]8-OH-DPAT-Labeled 5-hydroxytryptamine 1A receptor sites in rat brain hippocampal membranes expressed as Hill values
Assay type: cell membranes
Please reply with the number alone, leaving off any unit.

Before answering, review these 4 worked examples.
| molecule | system | Hill coefficient |
| --- | --- | --- |
| Oc1cccc2c1CC(NCCCc1ccccc1)CC2 (configuration not stated) | 5-hydroxytryptamine receptor 1A (Rattus norvegicus) (UniProt P19327) | 0.87 |
| COc1cccc2c1CC(NCCc1ccccc1)CC2 (configuration not stated) | 5-hydroxytryptamine receptor 1A (Rattus norvegicus) (UniProt P19327) | 0.85 |
| CCCN(CCC)C1CCc2cccc(O)c2C1 (configuration not stated) | 5-hydroxytryptamine receptor 1A (Rattus norvegicus) (UniProt P19327) | 1.01 |
| CCCN(C)C1CCc2cccc(OC)c2C1 (configuration not stated) | 5-hydroxytryptamine receptor 1A (Rattus norvegicus) (UniProt P19327) | 0.91 |

Asked: Reported Hill coefficient for COc1cccc2c1CC(N)CC2 (configuration not stated) : what is it?
Given back: 0.77

Asked: Query: Hill coefficient; subject: c1ccc(CCCNC2CCc3cccc(OCc4ccccc4)c3C2)cc1 (configuration not stated)
Given back: 0.91

Asked: Hill coefficient for COc1cccc2c1CC(NCCCc1ccccc1)CC2 (configuration not stated) ?
Given back: 0.83

###

system: 5-hydroxytryptamine receptor 1A (Rattus norvegicus, UniProt P19327)
Sequence (P19327 whole entry): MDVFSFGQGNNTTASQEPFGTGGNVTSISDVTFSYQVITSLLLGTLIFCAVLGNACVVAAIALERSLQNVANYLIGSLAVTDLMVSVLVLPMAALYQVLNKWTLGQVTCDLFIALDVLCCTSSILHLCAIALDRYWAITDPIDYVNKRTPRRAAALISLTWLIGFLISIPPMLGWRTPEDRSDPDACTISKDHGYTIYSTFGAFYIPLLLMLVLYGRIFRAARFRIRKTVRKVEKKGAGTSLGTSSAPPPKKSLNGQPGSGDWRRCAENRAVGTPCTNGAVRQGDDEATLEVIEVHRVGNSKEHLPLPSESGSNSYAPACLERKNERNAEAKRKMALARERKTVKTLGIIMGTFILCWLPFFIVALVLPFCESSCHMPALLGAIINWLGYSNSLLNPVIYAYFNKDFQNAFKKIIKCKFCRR
# pKi per entry
Answer as the number alone; pKi is minus log10 of concentration in mol/L.

| compound | system | observed-measurement |
| --- | --- | --- |
| COc1cccc2c1CC(N(C)CCCc1ccccc1)CC2 (centres undefined) | 5-hydroxytryptamine receptor 1A (Rattus norvegicus, UniProt P19327) | 8.70 |
| CCCN(C)C1CCc2cccc(OC)c2C1 (centres undefined) | 5-hydroxytryptamine receptor 1A (Rattus norvegicus, UniProt P19327) | 8.68 |
| COc1cccc2c1CC(N(C)CCc1ccccc1)CC2 (centres undefined) | 5-hydroxytryptamine receptor 1A (Rattus norvegicus, UniProt P19327) | 8.10 |

Asked: Need pKi, item CCCNC1CCc2cccc(OC)c2C1 (centres undefined)
Given back: 8.64
